A collection of molecules and their measured Cmax
Assay: Maximum plasma concentration when administered perorally at 30 mg/kg dose
Format: ADME, organism-based
Parameters: dose 30 mg/kg, route oral
Conditions: rat, in vivo, po

{"columns": ["MOLECULE", "Cmax"],
 "data": [
  ["O=C(O)C[C@@H](C1CCN(C(=O)CCCc2ccc3c(n2)NCCC3)CC1)C1CNc2ccccc2C1 (stereo in doubt; form 1)", "8 µM"],
  ["COc1ccc([C@@H](CC(=O)O)CC2CCN(C(=O)CCc3ccc4c(n3)NCCC4)CC2)cn1 (stereo in doubt; form 1)", "0.1 µM"],
  ["O=C(O)C[C@@H](C1CCN(C(=O)CCCc2ccc3c(n2)NCCC3)CC1)C1CNc2ccccc2C1 (single isomer, unassigned; isomer d)", "58 µM"],
  ["COc1ccc([C@@H](CC(=O)O)CC2CCN(C(=O)CCc3ccc4c(n3)NCCC4)CC2)cn1 (stereo in doubt; 34)", "0.9 µM"]
]}

Hey, just so you know, these numbers are from ChEMBL document CHEMBL1138711.
